Cited source: patent US20240116985A1

Target: full-length beta-Catenin (Uniprot ID P35222) (Homo sapiens)
Construct: 10 nM full-length beta-Catenin (Uniprot ID P35222)
Sequence (P35222 whole entry): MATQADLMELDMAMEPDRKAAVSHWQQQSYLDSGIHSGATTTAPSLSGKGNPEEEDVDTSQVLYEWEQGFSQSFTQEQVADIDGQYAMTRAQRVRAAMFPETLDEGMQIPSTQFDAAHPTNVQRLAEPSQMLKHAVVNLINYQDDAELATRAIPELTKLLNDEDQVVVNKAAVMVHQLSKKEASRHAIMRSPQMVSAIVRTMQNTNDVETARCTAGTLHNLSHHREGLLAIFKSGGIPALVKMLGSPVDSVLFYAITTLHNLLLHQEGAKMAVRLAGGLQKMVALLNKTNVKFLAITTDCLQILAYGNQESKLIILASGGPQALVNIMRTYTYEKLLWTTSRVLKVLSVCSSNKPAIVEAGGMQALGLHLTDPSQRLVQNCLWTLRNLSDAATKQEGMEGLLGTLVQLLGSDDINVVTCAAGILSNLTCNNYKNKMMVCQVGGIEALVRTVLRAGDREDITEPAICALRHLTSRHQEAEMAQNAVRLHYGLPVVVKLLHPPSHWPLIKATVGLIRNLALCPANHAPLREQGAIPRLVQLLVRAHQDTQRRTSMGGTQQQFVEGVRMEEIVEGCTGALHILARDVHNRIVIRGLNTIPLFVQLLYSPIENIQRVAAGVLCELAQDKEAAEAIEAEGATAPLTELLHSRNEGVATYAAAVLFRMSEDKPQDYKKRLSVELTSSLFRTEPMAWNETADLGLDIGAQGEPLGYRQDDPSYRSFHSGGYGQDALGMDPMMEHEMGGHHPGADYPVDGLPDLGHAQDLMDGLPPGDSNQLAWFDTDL
Assay: Fluorescence polarization IC50 (beta-catenin / 5FAM-TCF4 10-53 competition)
Type: binding
Conditions: fluorescence polarization, beta-catenin; read-out: FP EC50
Measure name: IC50 (µM)

• CC(=O)N1CCC[C@]12CC=CCCCC1(CCCC=CCCCOC(=O)N3CC[C@@](C(=O)N[C@@H](Cc4ccsc4)C(=O)N[C@@H](Cc4csc5ccccc45)C(=O)N[C@@H](CCC(N)=O)C(=O)O)(C3)NC(=O)[C@H](CC(N)=O)NC(=O)[C@H](CC(=O)O)NC(=O)[C@H](C)NC(=O)[C@H](C)NC(=O)[C@H](CC(=O)O)NC(=O)[C@H](CC(=O)O)NC1=O)NC(=O)[C@H](CC(C)(C)C)NC(=O)[C@H](Cc1ccccc1)NC2=O (some centres unmarked) [I-1027] = 1.14
• CC(=O)N1CCC[C@]12CC=CCCCC1(CCCC=CCCCOC(=O)N3CC[C@@](C(=O)N[C@@H](Cc4ccccc4Cl)C(=O)N[C@@H](Cc4csc5ccccc45)C(=O)N[C@@H](CN4CCOCC4)C(N)=O)(C3)NC(=O)[C@H](CC(N)=O)NC(=O)[C@H](Cc3ccccc3)NC(=O)[C@H](C)NC(=O)[C@H](C)NC(=O)[C@H](CC(=O)O)NC(=O)[C@H](CC(=O)O)NC1=O)NC(=O)[C@H](CC(C)(C)C)NC(=O)[C@H](CC(=O)O)NC2=O (some centres unmarked) [I-1134] = 0.006

* * *

Biological target: beta-catenin/TCF4 engagement (Homo sapiens)
Construct: expressed in transfected cells; host or cells: HEK293
Sequence (P35222 whole entry): as above
Assay: Nano-BRET target engagement assay (B-cat-Halo & TCF4-Luc in HEK293 cells)
Format: cell-based
Details: read-out: NanoBRET Abs IC50
Entries annotated with measured IC50
Measure name: IC50 (µM)

- CC(=O)N1CCC[C@]12CC=CCCCC1(CCCC=CCCCOC(=O)N3CC[C@@](C(=O)N[C@@H](Cc4ccsc4)C(=O)N[C@@H](Cc4csc5ccccc45)C(=O)N[C@@H](Cc4c[nH]cn4)C(=O)N[C@@H](C)C(N)=O)(C3)NC(=O)[C@H](CC(N)=O)NC(=O)[C@H](Cc3ccccc3)NC(=O)[C@H](C)NC(=O)[C@H](C)NC(=O)[C@H](CC(=O)O)NC(=O)[C@H](CC(=O)O)NC1=O)NC(=O)[C@H](CC(C)(C)C)NC(=O)[C@H](CC(=O)O)NC2=O (some centres unmarked): 18.2
- CC(=O)N1CCC[C@]12CC=CCCCC1(CCCC=CCCCOC(=O)N3CC[C@@](C(=O)N[C@@H](Cc4ccccc4C(F)(F)F)C(=O)N[C@@H](Cc4csc5ccccc45)C(=O)N[C@H](C)C(N)=O)(C3)NC(=O)[C@H](Cc3ccccc3)NC(=O)[C@H](Cc3ccccc3)NC(=O)[C@H](C)NC(=O)[C@H](C)NC(=O)[C@H](Cc3cccc(C(=O)O)c3)NC(=O)[C@H](CC(=O)O)NC1=O)NC(=O)[C@H](CC(C)(C)C)NC(=O)[C@H](CC(=O)O)NC2=O (some centres unmarked): 10.5

* * *

Experiment: CHI Log D procedure
Type: physicochemical
Settings: pH 7.4
Entries annotated with measured CHI Log D
Measure name: CHI Log D

- CCCC[C@@H]1NC(=O)[C@H](CCC(=O)O)NC(=O)[C@H](CC(=O)O)NC(=O)C2(CCCC=CCCCCCC[C@@](C)(C(=O)N[C@@H](Cc3ccccc3)C(=O)N[C@@H](Cc3csc4ccccc34)C(=O)N[C@@H](CCC(N)=O)C(N)=O)NC(=O)[C@H](CCC(N)=O)NC(=O)[C@H](Cc3ccccc3)NC(=O)[C@H](C)NC1=O)CCCC=CC[C@]1(CCCN1C(C)=O)C(=O)N[C@@H](CC(=O)O)C(=O)N[C@@H]([C@@H](C)CC)C(=O)N2 (stereo partly shown) [I-657]: 2.767
- CC(=O)N1CCC[C@]12CC=CCCCC1(CCCC=CCCCCCC[C@@](C)(C(=O)N[C@@H](Cc3ccccc3)C(=O)N[C@@H](Cc3csc4ccccc34)C(=O)N(C)[C@@H](Cc3cnc[nH]3)C(N)=O)NC(=O)[C@H](CC(N)=O)NC(=O)[C@H](Cc3ccccc3)NC(=O)[C@H](C)NC(=O)[C@H](C)NC(=O)[C@H](CCC(=O)O)NC(=O)[C@H](CC(=O)O)NC1=O)NC(=O)[C@H](CC(C)C)NC(=O)[C@H](CC(=O)O)NC2=O (stereo partly shown) [I-746]: 2.372
- CC(=O)N1CCC[C@]12CC=CCCCC1(CCCC=CCCCCCC[C@@](C)(C(=O)N[C@@H](Cc3ccc(C(F)(F)F)cc3)C(=O)N[C@@H](Cc3c[nH]c4ccccc34)C(=O)N[C@@H](CCC(N)=O)C(N)=O)NC(=O)[C@H](C(C)C)NC(=O)[C@H](Cc3ccccc3)NC(=O)[C@H](C)NC(=O)[C@H](C)NC(=O)[C@H](CC(=O)O)NC(=O)[C@H](CC(=O)O)NC1=O)NC(=O)[C@H](C)NC(=O)[C@H](CC(=O)O)NC2=O (stereo partly shown) [I-252]: 2.214
- CC[C@H](C)[C@@H]1NC(=O)[C@H](CC(=O)O)NC(=O)[C@]2(CC=CCCCC3(CCCC=CCCCCCC[C@@](C)(C(=O)N[C@@H](Cc4ccccc4)C(=O)N[C@@H](Cc4csc5ccccc45)C(=O)N[C@@H](CCC(N)=O)C(N)=O)NC(=O)[C@H](CCC(N)=O)NC(=O)[C@H](Cc4ccccc4)NC(=O)[C@H](C)NC(=O)[C@H](CC(C)C)NC(=O)[C@H](CCC(=O)O)NC(=O)[C@H](CC(=O)O)NC3=O)NC1=O)CCCN2C(C)=O (stereo partly shown) [I-648]: 2.721
- CC[C@@H]1NC(=O)[C@H](CC(=O)O)NC(=O)[C@]2(CC=CCCCC3(CCCC=CCCCCCC[C@@](C)(C(=O)N[C@@H](Cc4ccccc4)C(=O)N[C@@H](Cc4csc5ccccc45)C(=O)N[C@@H](CCC(N)=O)C(N)=O)NC(=O)[C@H](CCC(N)=O)NC(=O)[C@H](Cc4ccccc4)NC(=O)[C@H](C)NC(=O)[C@H](C)NC(=O)[C@H](CCC(=O)O)NC(=O)[C@H](CC(=O)O)NC3=O)NC1=O)CCCN2C(C)=O (stereo partly shown) [I-568]: 2.158
- CC[C@H](C)[C@@H]1NC(=O)[C@H](CC(=O)O)NC(=O)[C@]2(CC=CCCCC3(CCCC=CCCCCCC[C@@](C)(C(=O)N[C@@H](Cc4ccccc4)C(=O)N[C@@H](Cc4csc5ccccc45)C(=O)N[C@H](C(N)=O)[C@@H](C)O)NC(=O)[C@H](CCC(N)=O)NC(=O)[C@H](Cc4ccccc4)NC(=O)[C@H](C)NC(=O)[C@H](C)NC(=O)[C@H](CCC(=O)O)NC(=O)[C@H](CC(=O)O)NC3=O)NC1=O)CCCN2C(C)=O (stereo partly shown) [I-641]: 2.497
- CC(=O)N1CCC[C@]12CC=CCCCC1(CCCC=CCCCCCC[C@@](C)(C(=O)N[C@@H](Cc3ccccc3)C(=O)N[C@@H](Cc3c[nH]c4ccccc34)C(=O)N[C@@H](C)C(N)=O)NC(=O)[C@H](C(C)C)NC(=O)[C@H](Cc3ccccc3)NC(=O)[C@H](C)NC(=O)[C@H](C)NC(=O)[C@H](CC(=O)O)NC(=O)[C@H](CC(=O)O)NC1=O)NC(=O)[C@H](C)NC(=O)[C@H](CC(=O)O)NC2=O (stereo partly shown) [I-292]: 2.208
- CC(=O)N1CCC[C@]12CC=CCCCC1(CCCC=CCCCCCC[C@@](C)(C(=O)N[C@@H](Cc3ccccc3)C(=O)N[C@@H](Cc3c[nH]c4ccccc34)C(=O)N[C@@H](CCC(N)=O)C(N)=O)NC(=O)[C@H](C(C)C)NC(=O)[C@H](Cc3cc(F)cc(F)c3)NC(=O)[C@H](C)NC(=O)[C@H](C)NC(=O)[C@H](CCC(=O)O)NC(=O)[C@H](CC(=O)O)NC1=O)NC(=O)[C@H](C)NC(=O)[C@H](CC(=O)O)NC2=O (stereo partly shown): 2.074
- CC(=O)N1CCC[C@]12CC=CCCCC1(CCCC=CCCCCCC[C@@](C)(C(=O)N[C@@H](Cc3ccccc3)C(=O)N[C@@H](Cc3csc4ccccc34)C(=O)N[C@@H](CCC(N)=O)C(N)=O)NC(=O)[C@H](CC(N)=O)NC(=O)[C@H](Cc3ccccc3)NC(=O)[C@H](C)NC(=O)[C@H](C)NC(=O)[C@H](CCC(=O)O)NC(=O)[C@H](CC(=O)O)NC1=O)NC(=O)[C@H](CC(C)C)NC(=O)[C@H](CC(=O)O)NC2=O (stereo partly shown) [I-576]: 2.348
- CC[C@H](C)[C@H](NC(=O)[C@H](CC(=O)O)NC(=O)[C@H](C)NC(C)=O)C(=O)N[C@]1(C)CCN(C)C(=O)OCC=CCCCCC[C@@](C)(C(=O)N[C@@H](Cc2ccccc2)C(=O)N[C@@H](Cc2c[nH]c3ccccc23)C(=O)N[C@@H](Cc2c[nH]cn2)C(N)=O)NC(=O)[C@H](CCC(N)=O)NC(=O)[C@H](Cc2ccccc2)NC(=O)[C@H](C)NC(=O)[C@H](C)NC(=O)[C@H](CCC(=O)O)NC(=O)[C@H](CC(=O)O)NC1=O [I-66]: 1.259
